- Tested on: E. histolytica HM1: IMSS
- Protocol notes: Trophozoite viability IC50 determination, Amebae assay (ATPLite)
- Type: cell-based
- Run parameters: Entamoeba histolytica, 72 h, read-out: Cell viability values Mean IC50 (nM) E. histolytica HM1: IMSS
- Protocol: Giardia cultures: Trophozoites of G. lamblia isolates WB and GS were grown anaerobically in borosilicate glass screw-cap culture tubes (Fisher Scientific) at pH 7.0 in modified TYI-S-33 medium. […] Giardia assays: 10 μL giardia trophozoites in growth medium were plated at a density of 10,000 cells/well in sterile 96-well black clear bottom assay plates. […] The luminescent signals of the assay plates were measured on an EnSpire 2300 plate reader (PerkinElmer). […]
Test readout: IC50

Asked: Find IC50 for CO[C@@H]1[C@H](OC(=O)Nc2cc(C#N)ccc2B(O)O)CC[C@]2(CO2)[C@H]1[C@@]1(C)O[C@@H]1CC=C(C)C [No 24] on E. histolytica HM1: IMSS and write it down.
Given back: > 1000 nM

Asked: Find IC50 for CO[C@@H]1[C@H](OC(=O)N[C@H](C)B(O)O)CC[C@]2(CO2)[C@H]1[C@@]1(C)O[C@@H]1CC=C(C)C [No 70] on E. histolytica HM1: IMSS and write it down.
Given back: > 1000 nM

Asked: Find IC50 for CO[C@@H]1[C@H](OC(=O)Nc2c(B(O)O)ccnc2Cl)CC[C@]2(CO2)[C@H]1[C@@]1(C)O[C@@H]1CC=C(C)C [No 47] on E. histolytica HM1: IMSS and write it down.
Given back: > 1000 nM

Asked: Find IC50 for CO[C@@H]1[C@H](OC(=O)Nc2ccc(B(O)O)c(C(C)C)c2)CC[C@]2(CO2)[C@H]1[C@@]1(C)O[C@@H]1CC=C(C)C [No 62] on E. histolytica HM1: IMSS and write it down.
Given back: > 1000 nM

Asked: Find IC50 for COC(=O)c1ccc(B(O)O)c(NC(=O)OC2CCC3(CO3)C(C3(C)OC3CC=C(C)C)C2OC)c1 (stereo not shown) [No 26] on E. histolytica HM1: IMSS and write it down.
Given back: > 1000 nM

Asked: Find IC50 for CO[C@@H]1[C@H](OC(=O)Nc2ccc(B(O)O)c(F)c2)CC[C@]2(CO2)[C@H]1[C@@]1(C)O[C@@H]1CC=C(C)C [No 65] on E. histolytica HM1: IMSS and write it down.
Given back: > 1000 nM

Asked: Find IC50 for CO[C@@H]1[C@H](OC(=O)Nc2ccncc2B(O)O)CC[C@]2(CO2)[C@H]1[C@@]1(C)O[C@@H]1CC=C(C)C [No 37] on E. histolytica HM1: IMSS and write it down.
Given back: > 1000 nM

Asked: Find IC50 for CO[C@@H]1[C@H](OC(=O)NCCCB(O)O)CC[C@]2(CO2)[C@H]1[C@@]1(C)O[C@@H]1CC=C(C)C [No 59] on E. histolytica HM1: IMSS and write it down.
Given back: > 1000 nM

Asked: Find IC50 for CO[C@@H]1[C@H](OC(=O)Nc2cc(B(O)O)cc([N+](=O)[O-])c2)CC[C@]2(CO2)[C@H]1[C@@]1(C)O[C@@H]1CC=C(C)C [No 33] on E. histolytica HM1: IMSS and write it down.
Given back: > 1000 nM

Asked: Find IC50 for CO[C@@H]1[C@H](OC(=O)Nc2cc(C)cc(B(O)O)c2)CC[C@]2(CO2)[C@H]1[C@@]1(C)O[C@@H]1CC=C(C)C [No 28] on E. histolytica HM1: IMSS and write it down.
Given back: 101 to 1000 nM

Asked: Find IC50 for COC(=O)c1cc(NC(=O)OC2CCC3(CO3)C(C3(C)OC3CC=C(C)C)C2OC)cc(B(O)O)c1 (stereo not shown) [No 27] on E. histolytica HM1: IMSS and write it down.
Given back: 101 to 1000 nM

Asked: Find IC50 for COC1C(OC(=O)NCc2ccc(F)cc2B(O)O)CCC2(CO2)C1C1(C)OC1CC=C(C)C (stereo not shown) [No 32] on E. histolytica HM1: IMSS and write it down.
Given back: > 1000 nM

Asked: Find IC50 for CO[C@@H]1[C@H](OC(=O)Nc2cccc3c2COB3O)CC[C@]2(CO2)[C@H]1[C@@]1(C)O[C@@H]1CC=C(C)C [No 12] on E. histolytica HM1: IMSS and write it down.
Given back: 101 to 1000 nM
